# tgt: Dihydrofolate reductase (Homo sapiens) (UniProt P00374)
# Sequence (P00374 whole entry): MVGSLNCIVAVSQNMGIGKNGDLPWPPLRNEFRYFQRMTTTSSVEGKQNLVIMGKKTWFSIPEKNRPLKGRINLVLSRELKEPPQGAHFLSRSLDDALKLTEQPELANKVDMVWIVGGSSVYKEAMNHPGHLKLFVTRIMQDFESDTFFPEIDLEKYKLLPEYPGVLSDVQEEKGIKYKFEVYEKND
Returns one of 1 or 0; 1 when log(1/I50) is >= 8.

Solved entries (count: 8):
compound | tgt | label.value
CN(Cc1ccc2nc(N)nc(N)c2c1)c1ccc(C(=O)NC(CC(=O)O)C(=O)O)cc1 (stereo not given) | Dihydrofolate reductase (Homo sapiens) (UniProt P00374) | 1
Nc1nc(=O)c2cc(CSc3ccc(C(=O)NC(CCC(=O)O)C(=O)O)cc3)ccc2[nH]1 (stereo not given) | Dihydrofolate reductase (Homo sapiens) (UniProt P00374) | 0
CCOC(=O)CCC(NC(=O)c1ccc(CNc2ccc3nc(N)nc(O)c3c2)cc1)C(=O)OCC (stereo not given) | Dihydrofolate reductase (Homo sapiens) (UniProt P00374) | 0
CN(Cc1ccc2nc(N)nc(O)c2c1)c1ccc(C(=O)NC(CCC(=O)O)C(=O)O)cc1 (stereo not given) | Dihydrofolate reductase (Homo sapiens) (UniProt P00374) | 0
Nc1nc(N)c2cc(CNc3cccc(Br)c3)ccc2n1 | Dihydrofolate reductase (Homo sapiens) (UniProt P00374) | 1
CCOC(=O)CCC(NC(=O)c1ccc(SCc2ccc3nc(N)nc(O)c3c2)cc1)C(=O)OCC (stereo not given) | Dihydrofolate reductase (Homo sapiens) (UniProt P00374) | 0
Nc1nc(N)c2c(Cl)c(CNc3ccc(Cl)c(Cl)c3)ccc2n1 | Dihydrofolate reductase (Homo sapiens) (UniProt P00374) | 1
Nc1nc(=O)c2cc(NCc3ccc(C(=O)NC(CCC(=O)O)C(=O)O)cc3)ccc2[nH]1 (stereo not given) | Dihydrofolate reductase (Homo sapiens) (UniProt P00374) | 0

[in] Check the entry Nc1nc(N)c2c(Cl)c(CNc3ccc(C(=O)NC(CCC(=O)O)C(=O)O)cc3)ccc2n1 (stereo not given) : does log(1/I50) equal or exceed 8?
[out] 1

[in] Quick check: does CCOC(=O)CCC(NC(=O)c1ccc(CNc2ccc3nc(N)nc(N)c3c2)cc1)C(=O)OCC (stereo not given) have log(1/I50) greater than or equal to 8?
[out] 0

[in] Hi team, for Nc1nc(N)c2c(Cl)c(CNc3ccc(C(=O)NC(CC(=O)O)C(=O)O)cc3)ccc2n1 (stereo not given) , is the recorded log(1/I50) at or above 8?
[out] 1

[in] For this compound, is measured log(1/I50) 8 or higher? `CCOC(=O)c1ccc(CNc2ccc3nc(N)nc(O)c3c2)cc1`
[out] 0

[in] In plain terms: is recorded log(1/I50) at least 8 for `CC(=O)N(Cc1ccc2nc(N)nc(N)c2c1)c1ccc(Cl)c(Cl)c1` ?
[out] 0

[in] Textbook exercise: given the entry Cc1c(CNc2ccc(C(=O)NC(CC(=O)O)C(=O)O)cc2)ccc2nc(N)nc(N)c12 (stereo not given) , state whether its log(1/I50) is greater than or equal to 8.
[out] 1

[in] I'd appreciate it if you could say whether Nc1nc(N)c2cc(CNc3ccc(Cl)c(C(=O)NC(CCC(=O)O)C(=O)O)c3)ccc2n1 (stereo not given) has log(1/I50) at least equal to 8.
[out] 0

[in] Is the recorded value of log(1/I50) equal to or greater than 8 for this compound? `Nc1nc(N)c2cc(CNc3ccc(Cl)c(Cl)c3)ccc2n1`
[out] 1
